Data credit: ChEMBL document CHEMBL1961873

- system: Fibroblast growth factor receptor 4 (Homo sapiens);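 also: reported figure is the averaged percent inhibition of FGFR4, from the GSK PKIS kinase screening panel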
- assay context: at 1 µM
reported property: inhibition (%)
Please reply with the bare figure in % and do not write the unit itself.

// worked examples, inhibition included
INSERT INTO results (molecule, units_symbol, measured_result) VALUES
  ('O=C1Nc2ccccc2/C1=C1\CCc2cc(O)ccc21', '%', 3.99),
  ('CS(=O)(=O)CCNCc1ccc(-c2ccc3ncnc(Nc4ccc(OCc5cccc(C(F)(F)F)c5)cc4)c3c2)o1', '%', 1.52),
  ('COc1cc(Nc2ncc(-c3ccccc3)o2)cc(OC)c1', '%', -0.29);

Turning now to a further compound:
Enquiry: Which inhibition reading was recorded for the compound COC(=O)Nc1nc2cc(Oc3ccc(NC(=O)Nc4ccccc4)cc3)ccc2[nH]1 ?
Return: -0.59

###

Some compounds, each annotated with its measured inhibition.
- system: Serine/threonine-protein kinase Chk2 (Homo sapiens) (UniProt O96017)
- Sequence (O96017 whole entry): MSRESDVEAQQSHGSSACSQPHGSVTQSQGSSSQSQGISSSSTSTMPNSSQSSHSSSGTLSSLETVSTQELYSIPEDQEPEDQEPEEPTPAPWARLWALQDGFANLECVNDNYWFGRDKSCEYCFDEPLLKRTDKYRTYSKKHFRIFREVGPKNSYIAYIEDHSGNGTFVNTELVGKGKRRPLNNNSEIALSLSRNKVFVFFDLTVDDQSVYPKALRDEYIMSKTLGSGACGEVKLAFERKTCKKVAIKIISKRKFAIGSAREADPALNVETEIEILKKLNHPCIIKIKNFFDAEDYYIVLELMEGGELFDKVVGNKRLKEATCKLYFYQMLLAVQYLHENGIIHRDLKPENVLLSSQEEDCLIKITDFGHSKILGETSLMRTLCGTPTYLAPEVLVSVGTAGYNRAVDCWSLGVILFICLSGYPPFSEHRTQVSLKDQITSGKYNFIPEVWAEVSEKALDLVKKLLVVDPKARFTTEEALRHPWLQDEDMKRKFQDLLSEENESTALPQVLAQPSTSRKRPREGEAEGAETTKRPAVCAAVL
- assay context: at 0.1 µM
- Description: GSK_PKIS: CHEK2 mean inhibition at 0.1 uM [Nanosyn]
Please reply with the bare figure in % and do not write the unit itself.

// worked examples, inhibition included
INSERT INTO measurements (molecule, system, reported_property, units_symbol, measured_result) VALUES
  ('N#Cc1ccc2c(-c3ccnc(NC4CC4)n3)c(-c3ccc(F)cc3)nn2c1', 'Serine/threonine-protein kinase Chk2 (Homo sapiens) (UniProt O96017)', 'inhibition', '%', -0.32),
  ('Fc1cccc(COc2ccc(Nc3ncncc3C#Cc3ccccc3)cc2Cl)c1', 'Serine/threonine-protein kinase Chk2 (Homo sapiens) (UniProt O96017)', 'inhibition', '%', 3.47);

Turning now to a further compound:
Enquiry: Which inhibition reading was recorded for the compound NS(=O)(=O)c1cccc(N/C=C2\C(=O)Nc3ccccc32)c1 ?
Return: 10.6

###

- Tested on: Tyrosine-protein kinase ABL1 (Homo sapiens), P00519 [Y253F]
- assay context: at 1 µM
Some compounds, each annotated with its measured inhibition.
Please reply with the bare figure in % and do not write the unit itself.

// worked examples, inhibition included
INSERT INTO results (molecule, measured_result) VALUES
  ('CCCNc1cccc(-n2ncc3c(N/N=C/c4ccncc4)ncnc32)c1', 86.2),
  ('COc1ccc(Nc2ncc(-c3ccccc3)o2)cc1OC', 54.3),
  ('CC1(C)CC(n2cnc(-c3ccc(F)cc3)c2-c2ccnc(N)n2)CC(C)(C)N1', 5.3),
  ('CCS(=O)(=O)c1ccc(OC)c(Nc2ncc(-c3cccc(C(C)=O)c3)o2)c1', 72.3),
  ('COc1ccccc1-c1cc(/C=C2\C(=O)Nc3ncc(Br)cc32)cc(Br)c1O', 20),
  ('CN1CCC(n2cnc(-c3ccc(F)cc3)c2-c2ccnc(NCCO)n2)CC1', 4.11),
  ('COc1ccc(-c2nn3ncccc3c2-c2ccnc(Nc3ccc(F)c(F)c3)n2)cc1', 17.1),
  ('O=C(O[C@H]1CN[C@H](C#Cc2cc3ncnc(Nc4ccc5c(ccn5Cc5cc(F)ccc5F)c4)c3s2)C1)N1CCOCC1', 4.4);

Enquiry: Request body: readout inhibition, system Tyrosine-protein kinase ABL1 (Homo sapiens), P00519 [Y253F], query c1cnn2ncc(-c3ccnc(NCCCN4CCOCC4)n3)c2c1 . Return the value.
Return: 1.93

Enquiry: Request body: readout inhibition, system Tyrosine-protein kinase ABL1 (Homo sapiens), P00519 [Y253F], query NS(=O)(=O)c1ccc(N/N=C2\C(=O)Nc3ccc(C(=O)NCc4ccncc4)cc32)cc1 . Return the value.
Return: 19.1
